target: acetylcholine receptor; assay: SPR, acetylcholine receptor on CM5 chip, peptide at 10 uM
property_label: Binding affinity (RU)
# value in RU; strip the unit string

INSERT INTO assay_data (binder, unit_tag, recorded_value) VALUES
  ('RKWFTR [6mer-1-541]', 'RU', 136),
  ('RKRQRR [6mer-1-576]', 'RU', 153);

Input line: What Binding affinity (RU) value was documented for this binder, RRSFTR [6mer-1-563] ?
Output line: 139

Input line: Now give it for KRSYQR [6mer-1-562] too.
Output line: 148

Input line: Now give it for KRGIRK [6mer-1-539] too.
Output line: 148

Input line: Now give it for RRVYSR [6mer-1-548] too.
Output line: 123

Input line: Now give it for RRSYRK [6mer-1-545] too.
Output line: 127
